Each entry below lists one item and its recorded pIC50 value.
- TESTED_SYSTEM: Acetylcholinesterase (Electrophorus electricus)
- Sequence (O42275 whole entry): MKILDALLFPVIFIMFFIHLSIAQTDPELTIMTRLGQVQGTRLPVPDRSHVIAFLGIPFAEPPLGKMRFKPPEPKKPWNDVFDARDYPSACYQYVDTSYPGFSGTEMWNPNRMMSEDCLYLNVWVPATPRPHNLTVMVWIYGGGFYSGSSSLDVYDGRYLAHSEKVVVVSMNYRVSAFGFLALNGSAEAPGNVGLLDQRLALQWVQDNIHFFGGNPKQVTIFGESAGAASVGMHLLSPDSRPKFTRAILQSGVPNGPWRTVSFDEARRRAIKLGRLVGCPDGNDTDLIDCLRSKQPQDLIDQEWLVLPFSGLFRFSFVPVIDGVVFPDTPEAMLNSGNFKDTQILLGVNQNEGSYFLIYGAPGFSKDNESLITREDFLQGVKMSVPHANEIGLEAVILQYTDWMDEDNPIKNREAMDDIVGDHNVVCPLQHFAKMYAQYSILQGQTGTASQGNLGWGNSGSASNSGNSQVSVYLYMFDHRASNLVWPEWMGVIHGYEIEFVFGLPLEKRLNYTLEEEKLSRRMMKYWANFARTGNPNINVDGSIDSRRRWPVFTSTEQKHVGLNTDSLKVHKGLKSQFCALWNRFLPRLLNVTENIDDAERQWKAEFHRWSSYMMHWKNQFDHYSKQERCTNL
- EXPERIMENT_DESCRIPTION: Inhibition of Electrophorus electricus AChE by Ellman's method
- MEASUREMENT_CONTEXT: read-out: IC50
pIC50 is defined as minus the log10 of a concentration measured in mol/L.

# annotated cases, reported pIC50 shown
COMPOUND: COc1cc2c(cc1OC)C(=O)C(C(=O)c1ccccc1Cl)C2 (stereo not drawn)
pIC50: 4.19

COMPOUND: COc1cc2c(cc1OC)C(=O)C(C(=O)c1ccc(C#N)cc1)C2 (stereo not drawn)
pIC50: 4.28

COMPOUND: COc1cc2c(cc1OC)C(=O)C(C(=O)c1ccco1)C2 (stereo not drawn)
pIC50: 5.03

COMPOUND: COc1cc2c(cc1OC)C(=O)C(C(=O)c1ccc(Br)cc1)C2 (stereo not drawn)
pIC50: 4.35

COMPOUND: COc1cc2c(cc1OC)C(=O)C(C(=O)c1ccc(N(C)C)cc1)C2 (stereo not drawn)
pIC50: 4.53

COMPOUND: COc1cc2c(cc1OC)C(=O)C(C(=O)c1c(Cl)cccc1Cl)C2 (stereo not drawn)
pIC50: 3.99

Query: Observed pIC50 on Acetylcholinesterase (Electrophorus electricus) for COc1cc2c(cc1OC)C(=O)C(C(=O)c1cc(OC)c(OC)c(OC)c1)C2 (stereo not drawn) , please.
Response: 5.57

Query: Short answer please: pIC50, Acetylcholinesterase (Electrophorus electricus), entry COc1cc2c(cc1OC)C(=O)C(C(=O)c1cccs1)C2 (stereo not drawn)
Response: 5.07

Query: Give Acetylcholinesterase (Electrophorus electricus) pIC50 for COc1cc2c(cc1OC)C(=O)C(C(=O)c1ccccc1)C2 (stereo not drawn)
Response: 4.68

Query: Lab request: please report pIC50 under test system Acetylcholinesterase (Electrophorus electricus) for COc1cc2c(cc1OC)C(=O)C(C(=O)c1ccc(F)cc1)C2 (stereo not drawn)
Response: 4.38

Query: Lookup: pIC50 / Acetylcholinesterase (Electrophorus electricus) / COc1cc2c(cc1OC)C(=O)C(C(=O)c1ccc(Cl)cc1)C2 (stereo not drawn)
Response: 4.39

Query: Notebook entry, Acetylcholinesterase (Electrophorus electricus) assay: pIC50 of COc1ccc(C(=O)C2Cc3cc(OC)c(OC)cc3C2=O)cc1OC (stereo not drawn) = ?
Response: 5.37

Query: # query: pIC50 | item COc1ccc(C(=O)C2Cc3cc(OC)c(OC)cc3C2=O)cc1 (stereo not drawn) | system: Acetylcholinesterase (Electrophorus electricus)
Response: 5.21
